- Tested system: pro-uPA wild type (Homo sapiens, UniProt P00749 21-431)
- Protocol description: competition, 125I-pro-uPA cell binding; U937 cells, 1 h, 4 C; effect lost on prolonged incubation; SPR: HBS (20 mM HEPES, 140 mM NaCl, pH 7.4), 2 mM MgCl2, 0.1% BSA, 0.005% Tween 20, temperature not stated; SAXS: HBS, 2 mM MgCl2, 25 C
- Test parameters: protein: recombinant
pIC50: −log10 of the molar value.
Measured metric: pIC50

So, upanap-126 (XNA, 2'-fluoro pyrimidines (2'-F-C, 2'-F-U)) RNA: GGGGCCACCAACGACAUUCAUUCGCACGCUGUGUGGGGAUUAGUCCCGAUGUUGUUGAUAUAAAUAGUGCCCAUGGAUC ? Its pIC50 was ~6.30
